tested target: A/California/7/2009 (H1N1) inactivated viral preparation (Influenza A virus A/California/7/2009 (H1N1))
protocol: ELISA, inactivated virus
Each entry falls into one class according to its EC50; the ranges are bottom bin (below 0.5 mg/L), middle bin (0.5 mg/L to below 2 mg/L), top bin (2 mg/L or more)

Below, 5 binders whose answers are already recorded.
Task: Hi, small favor: classify R2a-F9 (VHH) VHH: QVQLVESGGGLVQPGGSLRLSCSASGSISSIVTMGWYRQAPGKERELVAVIGNYGNTNYADSVKGRFTVSRDNAKNTVYLQMNSLNVEDTAMYVCKFSSTVAPHEYWGQGTQVTVSS by its EC50 when you get a moment.
Result: bottom bin

Task: Hey, which category is R1a-C5 (VHH) VHH: QVQLVESGGGLVQPGGSLRLSCAASNDIFSFYTMGWYLQAIGKQREPVAVIGNGGNTNYAESVKGRFTISRDGAKNTAYLQMNSLKPEDTAVYYCMASGPGGLNVWGQGTQVTVSS in, do you know?
Result: middle bin

Task: Dear colleague, I would appreciate it if you could identify the bin for R2a-G8 (VHH) VHH: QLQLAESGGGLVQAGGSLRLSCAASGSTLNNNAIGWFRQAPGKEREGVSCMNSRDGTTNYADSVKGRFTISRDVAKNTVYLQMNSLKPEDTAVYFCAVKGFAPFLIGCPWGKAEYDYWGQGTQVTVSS and reply at your convenience.
Result: top bin

Task: Returns: class label. Input: R1a-E5 (VHH) VHH: QLQLVESGGGLVQPGGSLRLSCTASGFSLDNYAIGWFRRAPGEEREGVSFITSTSAVTKYADSVKGRFTISRDNAKNTVYLQMTSLKPEDTAVYYCAGTRWVPTMKADEYNYWGQGTQVTVSS
Result: top bin

Task: Returns: class label. Input: R1a-G6 (VHH) VHH: QVQLVESGGGLVQSGGSLRLSCAASGSMSRIITMGWYRQAPGMERELVAVIGNNDNTVYGDSVQGRFTVSRDNAKNTAYLQMNSLNAEDTAMYYCKISTLTPPHEYWGQGTQVTVSS
Result: bottom bin

---
Task: Class for R1a-A5 (VHH) VHH: QVQLVESGGGLVQPGGSLRLSCSASGSAVLFSTYPMSWYRQAPGKQRELVAAVTTDGSTSYADYAKGRFTISRDNAKNTVYLQMNSLKPEDTAVYYCNARDGFFNRYDYWGQGTQVTVSS ?
Result: bottom bin

Task: The entry to classify is R1a-H6 (VHH) VHH: QVQLVESGGGLVQAGDSLRLSCTASVLTFSLYRVGWFRQAPGKEREFVAAIDWGDGPTTYADSVKGRFTISRDNAERTAYLQINSLKPEDTAVYYCGAGNTGSSDRSSSYVHWGQGTQVTVSS ; which class holds it?
Result: top bin

Task: The entry to classify is R2a-H9 (VHH) VHH: QVQLVESGGGLVQPGGSLRLSCAASTNIASFYTMGWYRQTPGQQRDVVAVIGNGGNTNYADSVKGRFTISRDGAKNTAHLQMNSLKPEDTDVYYCKASGPGGVILWGQGTQVTVSS ; which class holds it?
Result: middle bin

Task: Given R1a-F4 (VHH) VHH: QVQLVESGGGLVQPGGSLRLSCAASGSISRIVTMGWYRQGPGKERELVAVIGNYGNTNYADSVKGRFTVSRDNAKDTAYLQMNNLNVEDTAMYYCKCSTTTPPHEFWGQGTQVTVSS , name the class its EC50 places it in.
Result: middle bin
